// data source = BindingDB's records for doi:10.1016/j.bioorg.2016.01.001

These molecules were tested on Tyrosinase (Mus musculus, UniProt P11344); IC50 is the recorded read-out.
Sequence (P11344 whole entry): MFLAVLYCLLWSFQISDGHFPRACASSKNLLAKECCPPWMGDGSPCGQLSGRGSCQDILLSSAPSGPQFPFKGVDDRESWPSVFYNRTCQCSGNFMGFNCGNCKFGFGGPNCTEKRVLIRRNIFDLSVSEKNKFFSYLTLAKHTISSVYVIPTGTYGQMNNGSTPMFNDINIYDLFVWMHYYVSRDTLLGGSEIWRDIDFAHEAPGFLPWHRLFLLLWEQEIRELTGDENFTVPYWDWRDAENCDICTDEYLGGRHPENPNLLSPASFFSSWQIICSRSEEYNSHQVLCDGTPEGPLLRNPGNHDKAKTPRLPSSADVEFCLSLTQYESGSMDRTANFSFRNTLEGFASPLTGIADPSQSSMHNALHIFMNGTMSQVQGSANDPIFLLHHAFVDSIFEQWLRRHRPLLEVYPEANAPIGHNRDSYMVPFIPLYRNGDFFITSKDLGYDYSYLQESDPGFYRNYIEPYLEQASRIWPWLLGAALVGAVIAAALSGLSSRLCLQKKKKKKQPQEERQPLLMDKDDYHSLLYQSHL
measured.quantity: IC50 (µM)

A. COc1ccc(/C=C\c2ccccc2)cc1Br
B. Oc1ccc(/C=C/c2cc(O)cc(O)c2)cc1
C. Brc1ccc(/C=C\c2ccccc2)cc1 [Trans-1-Bromo-4-styrylbenzene (4)]
D. Oc1ccc(/C=C\c2ccccc2)cc1 [Trans-4-Styryl-phenol (8)]
Order the entries by their reported IC50, beginning at the minimum. Give your ranking as a list of the labels in the requested order. B, D, A, C

* * *

Tyrosinase (Mus musculus): reported IC50 for various compounds.
measured.quantity: IC50 (µM)

Example results:
compound	IC50, µM
Fc1ccc(/C=C\c2ccccc2)cc1 [Trans-1-Fluoro-4-styryl-benzene (2)]	79.4
N#C/C(=C/c1cccnc1)c1ccc(O)cc1	270
COc1ccc(/C=C\c2ccccc2)cc1 [Trans-1-Methoxy-4-styryl-benzene (9)]	433
O=[N+]([O-])c1ccc(/C=C\c2ccccc2)cc1 [Trans-1-Nitro-4-styrylbenzene (5)]	361

a. Fc1cc(F)cc(/C=C\c2ccccc2)c1 [Trans-1,3-Difluoro-5-styrylbenzene (12)]
b. COc1ccc(/C=C\c2ccc(F)cc2)cc1
Determine, for a and b , which has the greater value of IC50. # answer = label of selected item a
(a: 394 µM, b: 50 µM)
